- system_tested: hGPR65 (Homo sapiens)
- Construct: expressed in transfected cells; host or cells: HeLa (ATCC CCL-2), lentiviral transduction, pLX317
- Sequence (Q8IYL9 whole entry): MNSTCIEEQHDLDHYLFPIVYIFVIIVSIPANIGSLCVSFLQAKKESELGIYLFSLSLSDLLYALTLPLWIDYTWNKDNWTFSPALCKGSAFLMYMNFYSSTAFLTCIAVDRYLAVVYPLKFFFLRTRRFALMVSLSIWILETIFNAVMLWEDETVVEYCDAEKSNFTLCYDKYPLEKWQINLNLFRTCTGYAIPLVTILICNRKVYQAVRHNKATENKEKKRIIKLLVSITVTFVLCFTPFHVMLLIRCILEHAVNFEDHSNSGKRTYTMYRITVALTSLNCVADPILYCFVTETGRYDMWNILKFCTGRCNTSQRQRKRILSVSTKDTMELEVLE
- assay_explanation: cAMP detection (Lance Ultra), GPR65 KO HeLa reconstituted with hGPR65; 21K screen dose confirmation
- Type: cell-based
- condition_details: HeLa GPR65 KO + hGPR65, pH 7.1, 30 min, normalized to DMSO and 100 μM forskolin; read-out: WT EC50
pEC50: −log10 of the molar value.
Listing of recorded pEC50 by entry.
value_type: pEC50

COc1ccc(C(=O)c2cn(CC(=O)Nc3nc4c(s3)CCCC4)c3cnccc23)cc1    > 4.52
COc1ccc(Nc2nnc(-c3ccc(C(N)=O)cc3)c3ccccc23)cc1    < 4.00
O=C(Cn1nnc(-c2ccccc2NC(=O)c2ccccc2)n1)NC1CCCCC1    < 4.00
